molecular target: FPR-GFP fusion protein (human; Aequorea victoria), P21462; test: flow cytometry, LRG assembly of 30 nM FPR-GFP on αβγ DCNi beads, ligand varied (FIG. 13B)
endpoint_name: EC50 (nM)
Lab book: enter the figure in nM, no units written.

Fill in reported EC50 for this entry: MLFF (modifications not checked) [fMLFF]
27
